experiment: probe aNOTCH2 binding on compound microarray – biochemical, small-molecule microarray, 635/667 nm fluorescence, primary screen (AID 1121); details: higher = more signal;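 also: score merges feature fluorescence read at 667 nm with its signal to noise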
Response key: 1.0 means composite z-score >= -0.1; 0.0 means composite z-score < -0.1.

{"MOLECULE": "CN(C)CCCCCCNC(=O)[C@@H]1C[C@@H]2C(=O)N3CCC[C@H]3C(=O)N2[C@@H]1c1cccc(OCCO)c1", "LABEL CLASS": 0.0}
{"MOLECULE": "CC(C)[Si](C#C[Si](C(C)C)(C(C)C)C(C)C)(O[C@H](c1ccccc1)c1cn(Cc2ccccc2)nn1)C(C)C", "LABEL CLASS": 0.0}
{"MOLECULE": "COc1ccc(CCNC(=O)[C@@]2(c3ccc([N+](=O)[O-])cc3)CC(=O)N(C3CCCCC3)[C@@H]2c2ccc(CO)cc2)cc1", "LABEL CLASS": 1.0}
{"MOLECULE": "CCOC(=O)C[C@H]1[C@H](OC(=O)c2ccc(C(=O)c3ccccc3)cc2)[C@@H](NC(=O)CC(C)C)c2cc(OCCCO)ccc2N1C(=O)c1ccccc1", "LABEL CLASS": 1.0}
{"MOLECULE": "CCOC(=O)C[C@H]1[C@H](OC(=O)Cc2ccc3c(c2)OCO3)[C@@H](NC(=O)c2ccc3ccccc3n2)c2cc(OCCCO)ccc2N1C(=O)c1ccc2ccccc2n1", "LABEL CLASS": 0.0}
{"MOLECULE": "C=CCN1C(=O)[C@]2(CCS(=O)(=O)c3ccccc3)N=C(c3ccc(OCCCO)cc3)O[C@@H]2c2ccccc21", "LABEL CLASS": 0.0}
{"MOLECULE": "C=CC[C@]1(C(=O)N2CCOCC2)COC(c2ccc(OCCCO)cc2)=N1", "LABEL CLASS": 0.0}
{"MOLECULE": "COCCOC(=O)N1C(=O)[C@@]2(c3cc(C#CC4=CCCCC4)ccc31)[C@H](c1ccccc1OCCO)N1[C@H](c3ccccc3)[C@H](c3ccccc3)OC(=O)[C@H]1[C@@H]2C(=O)NC[C@H](O)c1ccccc1", "LABEL CLASS": 0.0}
{"MOLECULE": "C[N+](C)(C)CCCCCCNC(=O)[C@@H]1C[C@@H]2C(=O)N3CCC[C@H]3C(=O)N2[C@@H]1c1ccc(O)cc1", "LABEL CLASS": 0.0}
{"MOLECULE": "CCCCC(CC)C(O)C1C=CC2C(=O)N(C)C(=O)C2N1Nc1ccccc1 (configuration not stated)", "LABEL CLASS": 1.0}
{"MOLECULE": "CCOC(=O)C[C@H]1[C@H](OC(=O)c2ccccc2-c2ccccc2)[C@@H](NC(=O)c2ccc3ccccc3n2)c2cc(OCCCO)ccc2N1C(=O)Cc1ccc(OC)cc1", "LABEL CLASS": 0.0}
{"MOLECULE": "CC(C)C(CO)N1C(=O)[C@@H]2C3C(=O)OCCC/C=C\\[C@H]3OC23C=CCN(Cn2nnc4ccccc42)C(=O)[C@@H]13 (some centres not stated)", "LABEL CLASS": 0.0}
{"MOLECULE": "CCOC(=O)C1=CC[C@@H](c2ccccc2)N(S(=O)(=O)c2ccc(C)cc2)[C@H]1c1ccccc1", "LABEL CLASS": 1.0}
{"MOLECULE": "CN(C)C(=O)[C@@]1(Cc2ccccc2)N=C(c2ccc(OCCCO)cc2)O[C@H]1c1ccccc1", "LABEL CLASS": 1.0}
{"MOLECULE": "C=C[C@H]1C(C(=O)OCC)=CC[C@@H](c2ccccc2)N1S(=O)(=O)c1ccc(C)cc1", "LABEL CLASS": 1.0}
{"MOLECULE": "O=C(Cc1ccccc1)[C@H]1C2C=CCCC(c3ccccc3)=C2CN1Cc1ccccc1 (some centres not stated)", "LABEL CLASS": 0.0}
{"MOLECULE": "[N-]=[N+]=Nc1ccccc1[C@@H]1OC(c2ccc(OCCCO)cc2)=N[C@]1(Cc1ccccc1)C(=O)N1CCCCC1", "LABEL CLASS": 0.0}
{"MOLECULE": "CCOC(=O)C[C@H]1[C@H](OC(=O)c2ccc(C(=O)c3ccccc3)cc2)[C@@H](NC(=O)c2ccc3ccccc3n2)c2cc(OCCCO)ccc2N1C(=O)Cc1ccc(OC)cc1", "LABEL CLASS": 0.0}
{"MOLECULE": "CCOC(=O)C[C@H]1[C@H](OC(=O)c2ccc(C(=O)c3ccccc3)cc2)[C@@H](NC(=O)c2ccc(-c3ccccc3)cc2)c2cc(OCCCO)ccc2N1C(=O)Cc1ccc(OC)cc1", "LABEL CLASS": 1.0}
{"MOLECULE": "O=C1C2C=CC(C(O)c3cccc(O)c3)N(Nc3ccc([N+](=O)[O-])cc3)C2C(=O)N1c1ccccc1 (configuration not stated)", "LABEL CLASS": 1.0}
{"MOLECULE": "COC(=O)[C@@]1(Cc2ccc(OC)cc2)[C@H]2c3cc(C(=O)N(C)C)n(Cc4ccc(OC(F)(F)F)cc4)c3C[C@H]2CN1C(=O)c1ccccc1", "LABEL CLASS": 1.0}
{"MOLECULE": "CCCCC(CC)C(O)C1C=CC2C(=O)N(c3ccccc3)C(=O)C2N1Nc1ccccc1F (configuration not stated)", "LABEL CLASS": 0.0}
{"MOLECULE": "NCCCCCNC(=O)[C@@H]1C[C@@H]2C(=O)N[C@@H](CCCCN)C(=O)N2[C@@H]1c1ccc(O)cc1", "LABEL CLASS": 1.0}
{"MOLECULE": "COCCOC(=O)N1C(=O)[C@@]2(c3cc(C#CCNC(N)=O)ccc31)[C@H](C(N)=O)[C@H]1C(=O)O[C@H](c3ccccc3)[C@H](c3ccccc3)N1[C@@H]2c1ccccc1OCCO", "LABEL CLASS": 1.0}
{"MOLECULE": "COc1ccc(C#Cc2ccc3c(c2)[C@]2(C(=O)N3)[C@H](C(=O)O)[C@H]3C(=O)O[C@H](c4ccccc4)[C@H](c4ccccc4)N3[C@@H]2c2ccc(O)cc2)cc1", "LABEL CLASS": 1.0}
{"MOLECULE": "[N-]=[N+]=Nc1ccccc1C[C@]1(C(=O)O)COC(c2ccc(OCCCO)cc2)=N1", "LABEL CLASS": 1.0}
{"MOLECULE": "C=CCOC(=O)[C@@H]1[C@H]2C(=O)O[C@H](c3ccccc3)[C@H](c3ccccc3)N2[C@H](c2ccc(OCCOC(=O)[C@@H]3C[C@@H]4C(=O)N[C@@H](CCCC[N+](C)(C)C)C(=O)N4[C@@H]3c3ccc(O)cc3)cc2)[C@@]12C(=O)Nc1ccc(I)cc12", "LABEL CLASS": 1.0}

====

test: probe aXIP binding to arrayed compounds – biochemical, NeuroSMM set, 635/667 nm fluorescence, primary screen (AID 1119); details: small-molecule microarray, higher = more signal, called active from +8 up or from −8 down;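 also: probe is the protein aXip251-270 applied at 1 µg/mL to compound-printed slides; binding of probe to printed compounds measured as 667 nm fluorescence plus signal to noise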
READOUT LABEL: composite Z-score

{"COMPOUND": "COCCOC(=O)N1C(=O)[C@@]2(c3cc(C#CCC(C(=O)OC)C(=O)OC)ccc31)[C@H](c1ccc(OCCO)cc1)N1[C@H](c3ccccc3)[C@H](c3ccccc3)OC(=O)[C@H]1[C@@H]2C(=O)N1CCc2cc(OC)c(OC)cc2C1", "READOUT LABEL": "composite Z-score", "ASSAY VALUE": -0.388}
{"COMPOUND": "CC[C@@H]1C=C(C(=O)O)[C@H](c2ccc(C#N)cc2)N1S(=O)(=O)c1ccc(C)cc1", "READOUT LABEL": "composite Z-score", "ASSAY VALUE": 0.474}
{"COMPOUND": "CN1C2C=C(CCCO)C(C3C(=O)N(C(N)=O)C(=O)C32)C1C1CC1 (stereo unspecified)", "READOUT LABEL": "composite Z-score", "ASSAY VALUE": -1.14}
{"COMPOUND": "CCOC(=O)C[C@H]1[C@H](OC(=O)Cc2ccc3c(c2)OCO3)[C@@H](NC(=O)c2ccc3ccccc3n2)c2cc(OCCCO)ccc2N1C(=O)c1ccccc1", "READOUT LABEL": "composite Z-score", "ASSAY VALUE": 0.221}
{"COMPOUND": "O=C1C2C=CC(C(O)c3cccc(O)c3)N(Nc3ccc([N+](=O)[O-])cc3)C2C(=O)N1c1ccccc1 (stereo unspecified)", "READOUT LABEL": "composite Z-score", "ASSAY VALUE": -0.335}
{"COMPOUND": "NCCCCCNC(=O)[C@H]1C[C@H]2C(=O)N3CCC[C@H]3C(=O)N2[C@H]1c1cccc(OCCO)c1", "READOUT LABEL": "composite Z-score", "ASSAY VALUE": 0.325}
{"COMPOUND": "O=C(Cc1ccccc1)[C@H]1C2C=CCCC(c3ccccc3)=C2CN1Cc1ccccc1 (stereo partly specified)", "READOUT LABEL": "composite Z-score", "ASSAY VALUE": -0.041}
{"COMPOUND": "CCOC(=O)C1=C[C@@H](c2ccccc2)N(S(=O)(=O)c2ccc(C)cc2)[C@H]1c1ccc(OC)cc1", "READOUT LABEL": "composite Z-score", "ASSAY VALUE": -0.0164}
{"COMPOUND": "COc1cc2c(cc1O)C(C1CC1)N(Cc1cccc(OC(F)(F)F)c1)CC2 (stereo unspecified)", "READOUT LABEL": "composite Z-score", "ASSAY VALUE": 0.926}
{"COMPOUND": "Cc1ccc(C(C)CC(O)C2C=CC3C(=O)N(c4ccccc4)C(=O)C3N2Nc2ccccc2)o1 (stereo unspecified)", "READOUT LABEL": "composite Z-score", "ASSAY VALUE": -0.474}
{"COMPOUND": "COC(=O)[C@@]1(Cc2ccccc2)[C@H]2c3cc(C(=O)N(C)C)n(Cc4ccc(C)o4)c3C[C@H]2CN1C(=O)c1ccccc1", "READOUT LABEL": "composite Z-score", "ASSAY VALUE": 0.173}
{"COMPOUND": "COC(=O)C/C=C/C[C@]1(O)C(=O)N(C)c2ccccc21", "READOUT LABEL": "composite Z-score", "ASSAY VALUE": -0.571}
{"COMPOUND": "C=CCC(OC(C)=O)[C@@H]1[C@@H](N(Cc2cc3ccccc3o2)C(=O)Cc2ccc(F)cc2)c2cc(OCCCO)ccc2N1C(=O)Cc1ccc2ccccc2c1 (stereo partly specified)", "READOUT LABEL": "composite Z-score", "ASSAY VALUE": 0.242}
{"COMPOUND": "CC[C@@H]1C=C(C(=O)O)[C@H](c2ccccc2)N1S(=O)(=O)c1ccc(C)cc1", "READOUT LABEL": "composite Z-score", "ASSAY VALUE": -0.12}
{"COMPOUND": "Cc1ccc(F)cc1S(=O)(=O)N[C@@H]1CCN(Cc2ccc(Br)cc2)C1", "READOUT LABEL": "composite Z-score", "ASSAY VALUE": -0.388}
{"COMPOUND": "CCCC=C(CCC)[C@@H](NS(=O)(=O)c1ccc(C(F)(F)F)cc1)c1ccccc1", "READOUT LABEL": "composite Z-score", "ASSAY VALUE": 0.404}
